- Tested on: UO-31
- Assay Procedure: NCI tumour cell line growth inhibition, 48 h
Calls of active or inactive are those of the source. Cut-off read from the data, not from the text of the source: active = GI50 up to about 1.1 µM and inactive = higher.
Exercise: for every item that follows, state its recorded GI50.

Sample Brc1cccc(Nc2nc(-c3cccs3)nc3ccc(Br)cc23)c1 ; GI50 observed: 47 µM (inactive)

Sample NC(=O)c1ncn2c1NCC1OC2C(O)C1O (configuration not stated) ; GI50 observed: > 100 µM (inactive)

Sample CC(=O)OCC1=C(C(=O)O)C(c2ccc3c(c2)OCO3)c2cc3c(cc2O1)OCO3 (configuration not stated) ; GI50 observed: > 100 µM (inactive)

Sample C=CCN(c1cc(OC)c2[nH]c(C(=O)O)c(C)c2c1[N+](=O)[O-])S(C)(=O)=O ; GI50 observed: > 100 µM (inactive)

Sample CC1(c2nc3ccccc3[nH]2)CCC(C(=O)O)C(C)(C)O1 (configuration not stated) ; GI50 observed: > 100 µM (inactive)

Sample CC(=O)N(C)C=C1C(=O)N(C)C(=O)N(C)C1=O ; GI50 observed: > 100 µM (inactive)

Sample O=C(Nc1nn(C(=O)c2cccnc2)c(=O)s1)c1ccc(Cl)cc1 ; GI50 observed: 1.8 µM (inactive)

Sample NNC(=S)N/N=C(\CCCC(=O)NCCc1ccccc1)CC(=O)c1ccccc1 ; GI50 observed: > 100 µM (inactive)

Sample O=C1OC(c2ccccc2)=N/C1=C\c1ccc([N+](=O)[O-])cc1 ; GI50 observed: 50.7 µM (inactive)

Sample CN(C)C(=S)/N=c1\ss/c(=N\S(=O)(=O)c2ccccc2)n1C ; GI50 observed: > 100 µM (inactive)

Sample CC(C)CCCC(C)[C@H]1CCC2[C@@H]3CCC4Nc5nocc5C[C@]4(C)C3CC[C@@]21C (some centres not stated) ; GI50 observed: 14.6 µM (inactive)

Sample CC(=O)NC(CC(C)C)C(=O)NC(CC(C)C)C(=O)NC(C=O)CCCNC(=N)N (configuration not stated) ; GI50 observed: > 100 µM (inactive)

Sample CC(C)C[C@H](NC(=O)[C@H](Cc1ccccc1)NC(=O)CCc1ccccc1)B(O)O ; GI50 observed: < 0.01 µM (active)

Sample O=C(CSc1ncnc2[nH]cnc12)c1ccccc1 ; GI50 observed: > 95.7 µM (inactive)

Sample Cc1ccc(NC(=O)c2cc(S(=O)(=O)N3CCNNC3=O)c(S)cc2Cl)cc1 ; GI50 observed: > 100 µM (inactive)

Sample Cc1cn(CCCCCCOC(=O)NC(CCCNC(=N)N)C(=O)O)c(=O)[nH]c1=O (configuration not stated) ; GI50 observed: > 100 µM (inactive)

Sample Nc1ccn(CCOC(=O)c2ccccc2)c(=O)n1 ; GI50 observed: > 100 µM (inactive)

* * *

- Tested on: HCT-116
- Assay Procedure: NCI tumour cell line growth inhibition, 48 h
Activity calls are given as the source filed them. Rule as the data show it: active = GI50 up to about 1.1 µM and inactive = higher.
Output constraint: value belongs to true = active, false = inactive

Per the records of this test, what outcome belongs to CCOC(=O)/C=C/C1(CCOC(C)=O)CCCCC1 ?
false

Per the records of this test, what outcome belongs to CC1(C)CC(/C=C2/OC(=O)c3ccccc32)=C(C(N)=O)C(=O)O1 ?
false

Per the records of this test, what outcome belongs to CC(=O)OCC1OC(n2c(C#N)cc(=O)[nH]c2=O)CC1OC(C)=O (stereo not given) ?
false

Per the records of this test, what outcome belongs to CCN(CC)CCC(=O)Nc1ccc2sc3ccccc3c(=O)c2n1 ?
false

Per the records of this test, what outcome belongs to CC1(c2nc3ccccc3[nH]2)CCC(C(=O)O)C(C)(C)O1 (stereo not given) ?
false

Per the records of this test, what outcome belongs to Cc1cc(N(CCC#N)CCC#N)ccc1/C=C/C(=O)Nc1ccccc1Cl ?
false

Per the records of this test, what outcome belongs to CO/C(=N\N=C(/C)C(F)(F)F)c1ccncc1 ?
false

Per the records of this test, what outcome belongs to Cn1nc(-c2ccccc2)c(C(=O)/C=C/c2ccc(Cl)cc2)c(N2CCOCC2)c1=O ?
false

Per the records of this test, what outcome belongs to OCCc1cnco1 ?
false

Per the records of this test, what outcome belongs to CC1(C)C2CCC13CS(=O)(=O)N1O[C@]13C(=O)O2 (stereo not given in full) ?
false

Per the records of this test, what outcome belongs to C[C@]12CC[C@@H]3c4ccc(OC(=O)c5ccccc5)cc4CC[C@H]3[C@@H]1CC[C@@H]2Oc1c2ccccc2nc2ccccc12 ?
false

Per the records of this test, what outcome belongs to Cc1nc(C)c(N2CCN(C(=O)NC(CCC(=O)O)C(=O)O)CC2)c(O)n1 (stereo not given) ?
false

Per the records of this test, what outcome belongs to CCC12C=C(C(=O)OC)N3c4ccccc4C4CCN(CCC1)C2C43 (stereo not given) ?
false

Per the records of this test, what outcome belongs to CC(C)NC(=O)OCc1c(COC(=O)NC(C)C)c(-c2cc[n+](COC(=O)C3CC3)cc2)n2c1CCC2 ?
false

Per the records of this test, what outcome belongs to CCCCCOC(=O)c1cc2cc(CCl)ccc2oc1=O ?
false

Per the records of this test, what outcome belongs to COc1ccc(-c2cc3c(nn2)-c2ccccc2C3=O)cc1 ?
false

Per the records of this test, what outcome belongs to NNC(=O)CSc1nc2ccc(I)cc2c(=O)n1Cc1ccccc1 ?
false

Per the records of this test, what outcome belongs to COC(=O)c1cc(NC(=O)c2cc(NC(=O)Cc3c[nH]c4ccccc34)cn2C)cn1C ?
false

Per the records of this test, what outcome belongs to c1ccc2cc3[s+]snc3cc2c1 ?
false

Per the records of this test, what outcome belongs to COC(=O)Cc1cc(=O)n2c3ccccc3n(C)c2c1C#N ?
false

Per the records of this test, what outcome belongs to CC1(C)C=C(/C=C2/N(S(=O)(=O)C(F)(F)F)C(/C=C3/N(S(=O)(=O)C(F)(F)F)C(C)(C#N)CC3(C)C)=CC2(C)C)N=C1/C=C1/CC(C)(C)C(=O)N1 (stereo not given) ?
false

Per the records of this test, what outcome belongs to CC(=O)NC(CC(C)C)C(=O)NC(CC(C)C)C(=O)NC(C=O)CCCNC(=N)N (stereo not given) ?
false

Per the records of this test, what outcome belongs to Cc1ccc(C2C(C(=O)C(C)(C)C)N2S(=O)(=O)c2ccc(C)cc2)cc1 (stereo not given) ?
false

Per the records of this test, what outcome belongs to CCc1ccccc1N1C(=O)C(=O)C(c2nc3ccccc3s2)C(=O)C1=O ?
false

Per the records of this test, what outcome belongs to Cc1[nH]c2ccccc2c1-c1cc(-c2cc(-c3c(C)[nH]c4ccccc34)on2)no1 ?
false

Per the records of this test, what outcome belongs to O=C(NN=C1CCCCC1)NN=C1CCCCC1 ?
false

Per the records of this test, what outcome belongs to O=C(O)C12C3C4(C(=O)O)C1C1(C(=O)O)C2C3(C(=O)O)C41 (stereo not given) ?
false

Per the records of this test, what outcome belongs to CCOC(=O)c1cc2c3c(cc(OC)c2[nH]1)N(C(=O)OCC)CC3 ?
false

Per the records of this test, what outcome belongs to COc1ccc2c(c1)c1c(C)c3cnccc3c(C)c1n2CCCN ?
true

Per the records of this test, what outcome belongs to N#Cc1ccc(/C=C(/C(=O)c2ccccc2)c2ccccc2)cc1 ?
false
